- Experimental system: T1, HBsAg of HBV genotype A (AY934772) (Hepatitis B virus)
- T1 construct: captured from supernatant by horse polyclonal anti-HBsAg
- Test protocol: sandwich ELISA, captured HBsAg from culture supernatant
Provide the reported pIC50 of each item.
To interpret pIC50, take it as minus log10 of a concentration measured in moles per litre.

q: Answer with the recorded pIC50 for the binder listed here: NOV3840 (antibody, human IgG1, lambda, V domains shown, Full human IgG1 (lambda) expressed in CHO cells) VH: EVQLLESGGGLVQPGGSRRLSCAASGFTFSYYGMNWVRQAPGKGLEWVSGITNSGSITYYADSVKGRFSISRDNSKNTLFLQMNSLRAEDTAVYYCAKVGVRSSSGMWDLDYWGQGTLVTVSS VL: SYVLTQPPSVSVAPGQTARLSCGGNNIGSKSLQWYQQKPGQAPVLVVNDDSDRPSGIPERFSGSNSGNTATLTISRVEAGDEADYYCQVWDTSSDHVVFGGGTKLTVLG
a: 10.64

q: Complete the entry with pIC50 for NOV3839 (antibody, human IgG1, kappa, V domains shown, Full human IgG1 (kappa) expressed in CHO cells) VH: QVQLQESGGRLVRPGGSLRLSCAASGFIFTDYYMTWIRQAPGKGPEWIAFITSGGETTYYADSVKGRFTISRDNAKKSLFLQMYSLRADDTAVYYCVRAHFDIYQYDTRGDFTYYFDNWGLGTLVSVSS VL: EIVMTQSPATLSVSPGERVTLSCRASQSVSSSLAWYQQKPGRAPRLLIYGASTRATGVPARFSGGGSGTDFTLTISSLQSEDFAVYYCHQYINWPPGDTFGQGTRLDIKR
a: 8.80

q: Item NOV3831 (antibody, human IgG1, lambda, V domains shown, Full human IgG1 (lambda) expressed in CHO cells) VH: EMQVLESGGGLVQPGGSLRLSCAASGFTFNNYAMSWVRQVPGKGLEWVSSISGSGGSTYYADSVKGQFTISRDNSKNTLYLQMNSLRAEDTAVYYCAKSSILSGGHARVYGIDVWGQGTTVTVSS VL: QSALTQPPSVSVAPGQTARITCGGNNIGSQSVHWYQQKPGQAPILVVYDDTDRPSGIPARFSGSSSGSTATLTIGRVEAGDEADYYCQVWDSSSDHVVFGGGTKLTVLS : provide pIC50
a: 9.16

q: Tell me measured pIC50 for NOV3832 (antibody, human IgG1, lambda, V domains shown, Full human IgG1 (lambda) expressed in CHO cells) VH: EMQVLESGGGLVQPGGSLRLSCAASGFTFDNYAMSWVRQVPGKGLEWVSSISGSGGSTYYADSVKGQFTISRDNSKNTLYLQMNSLRAEDTAVYYCAKSSILSGGHARVYGIDVWGQGTTVTVSS VL: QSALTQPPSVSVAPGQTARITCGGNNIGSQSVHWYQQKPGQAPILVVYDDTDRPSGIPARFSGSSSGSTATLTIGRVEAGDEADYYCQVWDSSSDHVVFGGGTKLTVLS please.
a: 10.30
